Listing of recorded bioavailability by entry.
- TEST: Pharmacokinetics in beagle dogs
- Format: in vivo
- TEST_CONDITIONS: male, dog, plasma, po, P.O. (1 mg/kg)
Numbers only; they are read as %.

Here are 3 compounds together with their reported answers.
| STRUCTURE | UNIT_NAME | MEASURED_NUMBER |
| --- | --- | --- |
| CCc1nn2cc(F)c(N3CCN(CC(=O)N4CC(O)C4)CC3)cc2c1N(C)c1nc(-c2ccc(F)cc2)c(C#N)s1 | % | 36.1 |
| CCn1nc2ncc(N3CC4(CN(C(=O)C5CCOCC5)C4)C3)cc2c1N(C)c1nc(-c2ccc(F)cc2)c(C#N)s1 | % | 40.7 |
| CCc1nc2c(C)cc(N3CCN(CC(=O)N4CC(O)C4)CC3)cn2c1N(C)c1nc(-c2ccc(F)cc2)c(C#N)s1 | % | 66.2 |

# evaluate next
input: What value of bioavailability has been recorded for this entry: "CCc1nn2cc(F)c(N3CC4(CN(C(=O)[C@H]5CCOC5)C4)C3)cc2c1N(C)c1nc(-c2ccc(F)cc2)c(C#N)s1"
output: 33.9

====

- TEST: Pharmacokinetics in beagle dogs
- Format: in vivo
- TEST_CONDITIONS: male, dog, plasma, iv, I.V. (1 mg/kg)
Listing of recorded clearance by entry.
Numbers only; they are read as L/h/kg.

Here are 3 molecules together with their reported answers.
| STRUCTURE | clearance (L/h/kg) |
| --- | --- |
| CCc1nc2c(C)cc(N3CCN(CC(=O)N4CC(O)C4)CC3)cn2c1N(C)c1nc(-c2ccc(F)cc2)c(C#N)s1 | 0.115 |
| CCc1nn2cc(F)c(N3CC4(CN(C(=O)[C@H]5CCOC5)C4)C3)cc2c1N(C)c1nc(-c2ccc(F)cc2)c(C#N)s1 | 0.111 |
| CCc1nn2cc(F)c(N3CCN(CC(=O)N4CC(O)C4)CC3)cc2c1N(C)c1nc(-c2ccc(F)cc2)c(C#N)s1 | 0.0918 |

# evaluate next
input: What value of clearance has been recorded for this entry: "CCn1nc2ncc(N3CC4(CN(C(=O)C5CCOCC5)C4)C3)cc2c1N(C)c1nc(-c2ccc(F)cc2)c(C#N)s1"
output: 0.461

====

- TEST: Pharmacokinetics after a single oral dose in SD rats
- Type: in vivo
- TEST_CONDITIONS: Sprague-Dawley, rat, plasma, single oral dose in 0.5% methylcellulose, read-out: T½ (converted)
Listing of recorded half-life by entry.
Numbers only; they are read as min.

Here are 5 compounds together with their reported answers.
| STRUCTURE | MEASURED_NUMBER |
| --- | --- |
| CCc1nn2cc(F)c(N3CC4(CN(C(=O)[C@H]5CCOC5)C4)C3)cc2c1N(C)c1nc(-c2ccc(F)cc2)c(C#N)s1 | 332 |
| CCc1nn2cc(F)c(N3CC4(CN(C(=O)C5(O)CCOCC5)C4)C3)cc2c1N(C)c1nc(-c2ccc(F)cc2)c(C#N)s1 | 226 |
| CCn1nc2ncc(N3CC4(CN(C(=O)[C@H]5CCOC5)C4)C3)cc2c1N(C)c1nc(-c2ccc(F)cc2)c(C#N)s1 | 262 |
| CN(c1nc(-c2ccc(F)cc2)c(C#N)s1)c1c(C2CC2)nn2cc(F)c(N3CCN(CC(=O)N4CC(O)C4)CC3)cc12 | 175 |
| CN(c1nc(-c2ccc(F)cc2)c(C#N)s1)c1c(C2CC2)nn2cc(F)c(N3CC4(CN(C(=O)[C@H]5CCOC5)C4)C3)cc12 | 223 |

input: What value of half-life has been recorded for this entry: "CCc1nc2c(C)cc(N3CCN(CC(=O)N4CC(O)C4)CC3)cn2c1N(C)c1nc(-c2ccc(F)cc2)c(C#N)s1"
output: 189

input: Now try "CCn1nc2nc(C)c(N3CC4(CN(C(=O)C5CCOCC5)C4)C3)cc2c1N(C)c1nc(-c2ccc(F)cc2)c(C#N)s1" .
output: 179

input: Now try "CCn1nc2ncc(N3CC4(CN(C(=O)C5CCOCC5)C4)C3)cc2c1N(C)c1nc(-c2ccc(F)cc2)c(C#N)s1" .
output: 231

====

- EXPERIMENTAL_TARGET: Autotaxin (Homo sapiens, UniProt Q13822)
- Construct: from tissue; host or cells: pooled human plasma
- TEST: LPA formation in pooled human plasma (ex vivo autotaxin inhibition)
- Format: biochemical
- TEST_CONDITIONS: 2 hours incubation, LPA 20:4 by LC/MS/MS, read-out: LPA formation (20:4) (IC50)
Listing of recorded IC50 by entry.

Here are 6 compounds together with their reported answers.
| COMPOUND | EXPERIMENTAL_TARGET | RESULT |
| --- | --- | --- |
| CCc1nn2cc(F)c(N3CCN(CC(=O)N4CC(O)C4)CC3)cc2c1N(C)c1nc(-c2ccc(F)cc2)c(C#N)s1 [Example 101] | Autotaxin (Homo sapiens, UniProt Q13822) | ≤ 0.1 µM |
| CCn1nc2ncc(N3CC4(CN(C(=O)C5CCOCC5)C4)C3)cc2c1N(C)c1nc(-c2ccc(F)cc2)c(C#N)s1 [Compound 118] | Autotaxin (Homo sapiens, UniProt Q13822) | ≤ 0.1 µM |
| CCc1nn2c(C)cc(N3CC4(CN(C(=O)N5CCN(C)CC5)C4)C3)cc2c1N(C)c1nc(-c2ccc(F)cc2)c(C#N)s1 [Example 32] | Autotaxin (Homo sapiens, UniProt Q13822) | ≤ 0.1 µM |
| CCc1nn2c(C)cc(N3CCN(CC(=O)N4CC(O)C4)CC3)nc2c1N(C)c1nc(-c2ccc(F)cc2)c(C#N)s1 [Example 95] | Autotaxin (Homo sapiens, UniProt Q13822) | > 1 µM |
| CN(c1nc(-c2ccc(F)cc2)c(C#N)s1)c1c(C2CC2)nn2cc(F)c(N3CCN(CC(=O)N4CC(O)C4)CC3)cc12 [Compound 113] | Autotaxin (Homo sapiens, UniProt Q13822) | ≤ 0.1 µM |
| Cc1cc(N2CCN(C3COCC3O)CC2)cc2c(N(C)c3nc(-c4ccc(F)cc4)c(C#N)s3)c(C3CC3)nn12 (stereo not shown) [Example 92] | Autotaxin (Homo sapiens, UniProt Q13822) | 0.1 to 0.5 µM |

input: What value of IC50 has been recorded for this entry: Cc1cc(N2CCN(C3COC3)CC2)cc2c(N(C)c3nc(-c4ccc(F)cc4)c(C#N)s3)c(C3CC3)nn12 [Example 94]
output: 0.5 to 1 µM

====

- EXPERIMENTAL_TARGET: CYP 3A4 (Homo sapiens)
- Sequence (P08684 whole entry): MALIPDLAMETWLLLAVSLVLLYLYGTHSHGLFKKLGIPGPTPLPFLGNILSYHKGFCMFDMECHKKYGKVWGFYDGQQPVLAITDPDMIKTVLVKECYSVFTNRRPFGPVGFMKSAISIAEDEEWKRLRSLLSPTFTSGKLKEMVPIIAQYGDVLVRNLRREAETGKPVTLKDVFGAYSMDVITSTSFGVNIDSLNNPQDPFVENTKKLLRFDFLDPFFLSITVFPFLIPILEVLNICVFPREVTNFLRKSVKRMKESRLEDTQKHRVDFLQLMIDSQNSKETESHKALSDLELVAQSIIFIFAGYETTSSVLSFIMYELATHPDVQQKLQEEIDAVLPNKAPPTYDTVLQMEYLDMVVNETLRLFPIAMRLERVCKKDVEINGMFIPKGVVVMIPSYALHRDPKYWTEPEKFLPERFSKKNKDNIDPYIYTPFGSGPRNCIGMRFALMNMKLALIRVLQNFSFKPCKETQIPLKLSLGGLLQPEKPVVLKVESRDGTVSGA
QUANTITY_KIND: pIC50
# pIC50 = -log10(concentration in molar units)

input: Reported pIC50 for CYP 3A4 (Homo sapiens), given "CCc1nc2c(C)cc(N3CCN(CC(=O)N4CC(O)C4)CC3)cn2c1N(C)c1nc(-c2ccc(F)cc2)c(C#N)s1" ?
output: 4.87

====

- EXPERIMENTAL_TARGET: Autotaxin (Homo sapiens, UniProt Q13822)
- Construct: from tissue; host or cells: pooled human plasma
- TEST: LPA formation in pooled human plasma (ex vivo autotaxin inhibition)
- Assay type: biochemical
- TEST_CONDITIONS: 2 hours incubation, LPA 20:4 by LC/MS/MS, read-out: LPA formation (20:4) (IC50)
QUANTITY_KIND: IC50

Here are 3 compounds together with their reported answers.
| COMPOUND | IC50 |
| --- | --- |
| CCc1nn2ccc(N3CCC4(CCN(C(=O)N5CC(O)C5)C4)CC3)cc2c1N(C)c1nc(-c2ccc(F)cc2)c(C#N)s1 [Example 18] | ≤ 100 nM |
| CCc1nn2ccc(N3CC4(CN(C(=O)N5CCN(C)CC5)C4)C3)cc2c1N(C)c1nc(-c2ccc(F)cc2)c(C#N)s1 [Example 14] | ≤ 100 nM |
| Cc1cc(N2CC(O)C2)cc2c(N(C)c3nc(-c4ccc(F)cc4)c(C#N)s3)c(C3CC3)nn12 [Example 87] | > 1000 nM |

# evaluate next
input: What value of IC50 has been recorded for this entry: CCc1nn2cc(C)c(N3CC4(CN(C(=O)C(C)(C)O)C4)C3)cc2c1N(C)c1nc(-c2ccc(F)cc2)c(C#N)s1 [Example 98]
output: 100 to 500 nM

====

- EXPERIMENTAL_TARGET: Autotaxin (Homo sapiens, UniProt Q13822)
- Construct: from tissue; host or cells: pooled human plasma
- TEST: LPA formation in pooled human plasma (ex vivo autotaxin inhibition)
- Format: biochemical
- TEST_CONDITIONS: 2 hours incubation, LPA 18:2 by LC/MS/MS, read-out: LPA formation (18:2) (IC50)
pIC50: −log10 of the molar value.
QUANTITY_KIND: pIC50

| MOLECULE | EXPERIMENTAL_TARGET | pIC50 |
| --- | --- | --- |
| CCn1nc2ncc(N3CCN(CC(=O)N4CC(O)C4)CC3)cc2c1N(C)c1nc(-c2ccc(F)cc2)c(C#N)s1 | Autotaxin (Homo sapiens, UniProt Q13822) | ≥ 7.00 |
| CCc1nn2c(C)cc(N3CC4(CN(C(=O)C(C)(C)O)C4)C3)cc2c1N(C)c1nc(-c2ccc(F)cc2)c(C#N)s1 | Autotaxin (Homo sapiens, UniProt Q13822) | ≥ 7.00 |
| CCc1nn2cc(F)c(N3CCC4(CN(C(=O)N5CC(O)C5)C4)C3)cc2c1N(C)c1nc(-c2ccc(F)cc2)c(C#N)s1 | Autotaxin (Homo sapiens, UniProt Q13822) | ≥ 7.00 |
| CCc1nn2c(C)cc(N3CC4(CN(C(=O)[C@H](O)CO)C4)C3)cc2c1N(C)c1nc(-c2ccc(F)cc2)c(C#N)s1 (single isomer, unassigned) | Autotaxin (Homo sapiens, UniProt Q13822) | 6.30 to 7.00 |
| CCn1nc2nc(C)c(N3CC4(CN(C(=O)[C@H]5CCOC5)C4)C3)cc2c1N(C)c1nc(-c2ccc(F)cc2)c(C#N)s1 | Autotaxin (Homo sapiens, UniProt Q13822) | ≥ 7.00 |
| CN(c1nc(-c2ccc(F)cc2)c(C#N)s1)c1c(C2CC2)nn2ccc(N3CCN(CC(=O)N4CC(O)C4)CC3)cc12 | Autotaxin (Homo sapiens, UniProt Q13822) | ≥ 7.00 |
| CCc1nn2ccc(N3CCC4(CCN(C(=O)N5CC(O)C5)C4)C3)cc2c1N(C)c1nc(-c2ccc(F)cc2)c(C#N)s1 (centres unmarked) | Autotaxin (Homo sapiens, UniProt Q13822) | ≥ 7.00 |
| CCc1nn2cc(F)c(N3CC4(CN(C(=O)C5CCN(C)CC5)C4)C3)cc2c1N(C)c1nc(-c2ccc(F)cc2)c(C#N)s1 | Autotaxin (Homo sapiens, UniProt Q13822) | ≥ 7.00 |

# evaluate next
input: What value of pIC50 has been recorded for this entry: CCc1nn2c(C)cc(N3CC4(CN(C(=O)[C@@H](O)CO)C4)C3)cc2c1N(C)c1nc(-c2ccc(F)cc2)c(C#N)s1 (single isomer, unassigned)
output: ≥ 7.00

src = patent US10711000B2
